System: NCI-H23 lung
Test: NCI-60 one-dose screen, 48 h
Conditions: 10 µM unless noted
Description: Growth inhibition of the NCI-H23 human Non-Small Cell Lung tumor cell line is measured as a screen for anti-cancer activity. Cells are grown in 96 well plates and exposed to the test compound for 48 hours. Compounds are tested at a single concentration, which is 10^-5 M for most compounds. The reported endpoint is percent growth (GI% or GIPRCNT), where numbers from 0 - 100% represent growth inhibition, and numbers from -100% - 0 represent cell death. […]
About 83,000 compounds went through this panel and 20% of them were active in at least one assay; those are over-represented in the sample as a whole. The source made the active and inactive calls. Rule for the calls: active = growth percent below 10; inactive = the rest.
// allowed return values: active, inactive

Would you please look over these solved cases?
1. CC1(C)OC2C(COC(c3ccccc3)(c3ccccc3)c3ccccc3)OC(c3c[nH]c4c(N)ncnc34)C2O1 (stereo unspecified) | inactive
2. O=C(O)c1cccc2cccc(-c3c4ccc(=O)c(O)c-4oc4c(O)c(O)ccc34)c12 | inactive
3. Cc1ccc(N2C(=O)C=CC2=O)cc1 | inactive
4. CCOC(=O)NC(/C=C/c1ccccc1)NC(=O)OCC | inactive
5. CC(=O)c1ccc2c(c1)CCc1ccccc1-2 | inactive
6. O=C(C[P+](c1ccccc1)(c1ccccc1)c1ccccc1)c1ccccc1 | inactive
7. O=C(c1ccccc1)C(Br)C(Br)c1ccccc1 (stereo unspecified) | inactive
8. Nc1ccc(-c2ccc(N)c(S(=O)(=O)O)c2)cc1S(=O)(=O)O | inactive
9. O=C1Nc2ccc(Br)cc2C1=O | inactive
10. O=C(c1ccccc1)C(O)C(Br)(CBr)c1ccccc1 (stereo unspecified) | inactive

Exercise: Please state the recorded outcome for this compound: CCCCCCCCC(=O)OCCCC(CCC(CCC1CCCO1)OC(=O)CCCCCCCC)OC(=O)CCCCCCCC (stereo unspecified)
Solution: inactive

Exercise: Please state the recorded outcome for this compound: CCC1C[N+]2=C(c3cc(OC)c(OC)cc3CC2)c2c1cc1n2CCc2cc(OC)c(OC)cc2-1 (stereo unspecified)
Solution: inactive

Exercise: Please state the recorded outcome for this compound: COC(=O)c1cc([N+](=O)[O-])cc([N+](=O)[O-])c1Cl
Solution: inactive

Exercise: Please state the recorded outcome for this compound: CCOC(=O)C1=C(C(=O)c2ccccc2)C(c2cccc([N+](=O)[O-])c2)C(C(=O)c2ccccc2)=C(C(=O)OCC)N1
Solution: inactive

Exercise: Please state the recorded outcome for this compound: C(=N\Nc1ccc2ccccc2n1)/c1ccccn1
Solution: inactive

Exercise: Please state the recorded outcome for this compound: N#CC(=C1SCS1)[N+](=O)[O-]
Solution: inactive

Exercise: Please state the recorded outcome for this compound: CCOC(=O)C1(C)CCCC1N (stereo unspecified)
Solution: inactive

Exercise: Please state the recorded outcome for this compound: O=C(c1ccccc1)N(CCCl)C(=O)N(CCCl)C(=O)c1ccccc1
Solution: inactive

Exercise: Please state the recorded outcome for this compound: CCOc1cc(F)c([N+](=O)[O-])cc1[N+](=O)[O-]
Solution: inactive

Exercise: Please state the recorded outcome for this compound: S=C1SCN(Cc2cccs2)CN1Cc1cccs1
Solution: inactive

Exercise: Please state the recorded outcome for this compound: Cc1nc(Sc2nc3ccc([N+](=O)[O-])cc3s2)sc1C
Solution: active

* * *

Tested on: NCI/ADR-RES ovarian
Test: NCI-60 one-dose screen, 48 h (100 = growth as untreated, 0 = no growth, -100 = all killed)
Conditions: 10 µM unless noted
Compounds without any hit were thinned out: in the full panel of roughly 83,000, 20% have a hit.
VALUE TYPE: growth (%)
State just the number; it will be interpreted in %.

Below are worked cases with known answers.
1. COc1cc(NC(=O)C2=C(C)NC(C)=C(C(=O)Nc3cc(OC)c(Cl)cc3OC)C2c2cccc([N+](=O)[O-])c2)c(OC)cc1Cl | 22
2. NC(=S)N/N=C\c1nccc2c(N)cccc12 | 10.8
3. Nc1cc(-c2ccccc2)ccc1O | 88.4
4. CCC(C)C(N)C(=O)NC(CC(N)=O)C(=O)NC(CC(C)C)C(=O)NC(CCCCN)C(=O)NC(C)C(=O)NC(CC(C)C)C(=O)NC(C)C(=O)NC(C)C(=O)NC(CC(C)C)C(=O)NC(C)C(=O)NC(CCCCN)C(=O)NC(CCCCN)C(=O)NC(C(=O)NC(CC(C)C)C(N)=O)C(C)CC (stereo not given) | 102
5. c1ccc2sc(SSN3CC4CCC(CC4)C3)nc2c1 | 108

Exercise: State growth on NCI/ADR-RES ovarian. Entry: CC(C)N=C(N)/N=C(\N)Nc1ccc2ccc3ccccc3c2c1
Solution: 41.5

Exercise: State growth on NCI/ADR-RES ovarian. Entry: Cc1cc(C(=O)c2ccc(Cl)cc2)ccc1O
Solution: 92.2

Exercise: State growth on NCI/ADR-RES ovarian. Entry: Cc1ccc2c(c1)sc(-c1ccc(N(C)C)cc1)[n+]2C
Solution: 81.3

Exercise: State growth on NCI/ADR-RES ovarian. Entry: Oc1ccc2ccccc2c1N=Nc1nccs1
Solution: -22.6

Exercise: State growth on NCI/ADR-RES ovarian. Entry: CCCCCCCCCCCC1N=C(N)N=C(N)N1c1cccc(Br)c1 (stereo not given)
Solution: 105

Exercise: State growth on NCI/ADR-RES ovarian. Entry: N#CC(I)CS(=O)(=O)c1ccccc1 (stereo not given)
Solution: 97.4

Exercise: State growth on NCI/ADR-RES ovarian. Entry: CC/C(=C(/CC)c1ccc(O)cc1)c1ccc(O)cc1
Solution: 40.8

Exercise: State growth on NCI/ADR-RES ovarian. Entry: CN1CCC(c2ccccc2)(c2ccccc2)C(=O)C1
Solution: 73.9

Exercise: State growth on NCI/ADR-RES ovarian. Entry: COc1ccc(/C=C2/C(=O)ON=C2C)cc1
Solution: 115

Exercise: State growth on NCI/ADR-RES ovarian. Entry: CN(C)c1ccc2cc3c(cc2c1)Oc1ccccc1N3.[Cl][Zn][Cl]
Solution: 86.2

Exercise: State growth on NCI/ADR-RES ovarian. Entry: CC(C)=C1C=C2CC[C@@H]3[C@](C)(CCC[C@@]3(C)C(=O)O)[C@H]2CC1
Solution: 100

Exercise: State growth on NCI/ADR-RES ovarian. Entry: CC1(C)OC2C(COC(c3ccccc3)(c3ccccc3)c3ccccc3)OC(c3c[nH]c4c(N)ncnc34)C2O1 (stereo not given)
Solution: 86.9

Exercise: State growth on NCI/ADR-RES ovarian. Entry: CC[n+]1ccc(Nc2ccc(NC(=O)c3ccc(Nc4cc[n+](CC)c5ccc([N+](=O)[O-])cc45)cc3)cc2)cc1
Solution: 106

Exercise: State growth on NCI/ADR-RES ovarian. Entry: Cc1c(O)ccc(SC#N)c1C
Solution: 106

Exercise: State growth on NCI/ADR-RES ovarian. Entry: Cc1cc(C)c([I+]c2c(C)cc(C)cc2C)c(C)c1
Solution: 78

Exercise: State growth on NCI/ADR-RES ovarian. Entry: COC(=O)C(=[N+]=[N-])C(=O)c1ccc([N+](=O)[O-])o1
Solution: 93.1

Exercise: State growth on NCI/ADR-RES ovarian. Entry: Cc1onc(-c2ccccc2)c1C(=O)N/N=C/c1cc(Cl)cc(Cl)c1O
Solution: 17.1

Exercise: State growth on NCI/ADR-RES ovarian. Entry: O=[N+]([O-])c1cc(-c2ccccc2)c(O)c([N+](=O)[O-])c1
Solution: 94.7

Exercise: State growth on NCI/ADR-RES ovarian. Entry: Nc1ccc(-c2ccc(N)c(S(=O)(=O)O)c2)cc1S(=O)(=O)O
Solution: 114

Exercise: State growth on NCI/ADR-RES ovarian. Entry: Cc1ccc(Nc2ccc(O)c3c2C(=O)c2c(O)ccc(Nc4ccc(C)cc4)c2C3=O)cc1
Solution: 107

// provenance: PubChem BioAssay (NCI)
